test: log P by HPLC on a reversed-phase column (C 18), EEC Directive 79/831 Annex V.A8; assay type: physicochemical; settings: Table 3 (amines of formula II); HPLC C 18, 40° C., 0.1% aqueous formic acid and acetonitrile
Catalogue of chromatographic logP readings, one per entry.
// no unit string in output, number only

Find the recorded chromatographic logP belonging to "Cc1ccc(C2(C#C[Si](C)(C)C)CC2)c(CNC2CC2)c1" and report it.
2.05

Find the recorded chromatographic logP belonging to "C[Si](C)(C)C#CC1(c2ccc(Cl)cc2CNC2CC2)CC1" and report it.
2.07

* * *

Catalogue of chromatographic logP readings, one per entry.
experiment: log P by HPLC on a reversed-phase column (C 18), EEC Directive 79/831 Annex V.A8; type: physicochemical; details: reversed-phase HPLC column (C 18); Table 3 (amines of formula II); HPLC C 18, 40° C., 0.1% aqueous formic acid and acetonitrile
// no unit string in output, number only

Example cases with answers are listed next.
Cc1ccc(C2(C)CC2)c(CNC2CC2)c1; 1.38
CCC1(c2cc(Cl)ccc2CNC2CC2)CC1; 1.65
FC(F)C1(c2ccccc2CNC2CC2)CC1; 0.92
FC(F)C1(c2ccc(Br)cc2CNC2CC2)CC1; 1.3

Find the recorded chromatographic logP belonging to "CC1(c2ccc(Br)cc2CNC2CC2)CC1" and report it.
1.43

Find the recorded chromatographic logP belonging to "FC(F)(F)C1(c2ccccc2CNC2CC2)CC1" and report it.
1.25

Find the recorded chromatographic logP belonging to "Cc1cc(CNC2CC2)c(C2(C)CC2)cc1C" and report it.
1.68

Find the recorded chromatographic logP belonging to "FC(F)C1(c2cccc(Br)c2CNC2CC2)CC1" and report it.
1.1

Find the recorded chromatographic logP belonging to "Cc1ccc(C2(C)CC2)c(CNC2(C#N)CC2)c1" and report it.
4.07

Find the recorded chromatographic logP belonging to "CC1(c2c(CNC3CC3)ccc3c2OCO3)CC1" and report it.
1.43

Find the recorded chromatographic logP belonging to "CCC1(c2ccc(C)cc2CNC2CC2)CC1" and report it.
1.63

Find the recorded chromatographic logP belonging to "CC1(c2ccc(F)cc2CNC2CC2)CC1" and report it.
1.37

Find the recorded chromatographic logP belonging to "FC(F)C1(c2ccc(Cl)cc2CNC2CC2)CC1" and report it.
1.16

Find the recorded chromatographic logP belonging to "COc1cc(CNC2CC2)c(C2(C)CC2)cc1OC" and report it.
1.26

Find the recorded chromatographic logP belonging to "Fc1ccc(C2(C(F)(F)F)CC2)c(CNC2CC2)c1" and report it.
1.32

* * *

Catalogue of logP readings, one per entry.
assay: log P by HPLC on a reversed-phase column (C 18), EEC Directive 79/831 Annex V.A8; format: physicochemical; conditions: HPLC, reversed-phase column (C 18), 40° C., 0.1% aqueous formic acid and acetonitrile, linear gradient 10% to 90% acetonitrile
// no unit string in output, number only

Cc1cc(CN(C(=O)c2c(C(F)F)nn(C)c2Cl)C2CC2)c(C2(C)CC2)cc1C; 4.53
Cn1nc(C(F)F)c(C(=O)N(Cc2c(C3(C)CC3)ccc(Cl)c2F)C2CC2)c1F; 4.24
Cc1ccc(C2(Cl)CC2)c(CN(C(=O)c2c(C(F)F)nn(C)c2F)C2CC2)c1; 3.89
Cc1ccc(C2(C)CC2)c(CN(C(=O)c2c(C(F)F)nn(C)c2F)C2(C#N)CC2)c1; 3.73
Cn1nc(C(F)F)c(C(=O)N(Cc2c(C(F)(F)F)cccc2C2(C)CC2Cl)C2CC2)c1F (centres unmarked); 4.46

Find the recorded logP belonging to "Cc1ccc(C2(Cl)CC2)c(CN(C(=O)c2c(C(F)F)nn(C)c2Cl)C2CC2)c1" and report it.
4.06

Find the recorded logP belonging to "Cc1ccc(C2(C3CC3)CC2)c(CN(C(=O)c2c(C(F)F)nn(C)c2F)C2CC2)c1" and report it.
4.59

Find the recorded logP belonging to "Cn1nc(C(F)F)c(C(=O)N(Cc2cccc(C3CCCCC3)c2C2(C)CC2)C2CC2)c1F" and report it.
5.74

Find the recorded logP belonging to "CCC1(c2cc(C)ccc2CN(C(=O)c2c(C(F)F)nn(C)c2F)C2CC2)CC1" and report it.
4.59
